- Tested on: Vero E6 infected with SARS-CoV-2
- measurement-description: inhibition of SARS-CoV-2 cytopathic effect; higher = more antiviral protection, active = above 15
- recorded-conditions: 8.33 nM; 48 h
Below, each entry is listed with its recorded inhibition of SARS-CoV-2 cytopathic effect.

Query: Which measured inhibition of SARS-CoV-2 cytopathic effect value corresponds to C[C@H](N)C(=O)O ?
Response: -0.48% (inactive)

Query: Now try CC(=O)N[C@H]1[C@H]([C@H](O)[C@H](O)CO)OC(O)(C(=O)O)C[C@@H]1O (mixture of isomers) .
Response: 1.91% (inactive)

Query: Now try CO/N=C(\C(=O)N[C@@H]1C(=O)N2C(C(=O)O)=C(CSc3nc(C)c(CC(=O)O)s3)CS[C@H]12)c1csc(N)n1 .
Response: -0.68% (inactive)

Query: Now try Cn1cc(C2=C(c3cn(CCCSC(=N)N)c4ccccc34)C(=O)NC2=O)c2ccccc21 [bisindolylmaleimide-IX] .
Response: -0.79% (inactive)

Query: Now try Cc1nc2ccccn2c(=O)c1CCN1CCC(C(=O)c2ccc(F)cc2)CC1 .
Response: 1.73% (inactive)

Query: Now try CC[C@]12CCCN3CCc4c(n(c5ccccc45)C(=O)C1)[C@@H]32 .
Response: -3.72% (inactive)

Query: Now try Cc1cccc(C)c1NC(=O)CN1CCN(CCCC(c2ccc(F)cc2)c2ccc(F)cc2)CC1 .
Response: 0.7% (inactive)

Query: Now try CC(=O)OCC1=C(C(=O)O)N2C(=O)[C@@H](N)[C@H]2SC1 .
Response: -2.34% (inactive)

Query: Now try CNCc1ccc(-c2[nH]c3cc(F)cc4c3c2CCNC4=O)cc1 .
Response: 5.76% (inactive)

Query: Now try Cc1c(O)cccc1C(=O)N[C@@H](CSc1ccccc1)[C@H](O)CN1C[C@H]2CCCC[C@H]2C[C@H]1C(=O)NC(C)(C)C .
Response: -3.72% (inactive)

Query: Now try N#Cc1c(-c2ccccc2)cc(-c2cc(Br)ccc2O)[nH]c1=O .
Response: 2.69% (inactive)

Origin of measurements: the supplement of paper PMC13380429
